// reported pIC50 per item
# Target Under Test: human LPA1 (Homo sapiens)
# Construct: expressed in transfected cells; host or cells: Chinese hamster ovary (CHO) cells
# Sequence (Q92633 whole entry): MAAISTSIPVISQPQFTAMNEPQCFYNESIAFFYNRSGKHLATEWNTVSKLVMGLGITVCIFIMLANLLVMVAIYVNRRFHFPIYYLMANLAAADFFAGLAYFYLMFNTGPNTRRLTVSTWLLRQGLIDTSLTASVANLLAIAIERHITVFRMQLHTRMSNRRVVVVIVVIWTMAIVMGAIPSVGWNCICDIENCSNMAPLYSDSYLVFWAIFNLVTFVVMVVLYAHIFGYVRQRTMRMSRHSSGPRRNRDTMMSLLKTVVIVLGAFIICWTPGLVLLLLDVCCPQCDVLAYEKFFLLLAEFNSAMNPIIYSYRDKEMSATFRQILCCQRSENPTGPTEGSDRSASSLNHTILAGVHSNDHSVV
# Protocol: LPA1 functional antagonist assay (calcium flux)
# Type: cell-based
# Assay Context: human LPA1 functional antagonist assay; read-out: hLPA1 IC50
pIC50: −log10 of the molar value.

Mol: Cc1nc(-c2nnn(C)c2CNC(=O)OCCC(C)(C)C)cnc1O[C@H]1CCC[C@H](C(=O)O)C1
pIC50: 7.12
//
Mol: Cc1nc(-c2nnn(C)c2CN(C)C(=O)OCC(C)C)ccc1O[C@H]1CCC[C@H](C(=O)O)C1
pIC50: 7.04
//
Mol: Cc1nc(-c2nnn(C)c2CNC(=O)OC2CCC2)ccc1O[C@H]1CCC[C@H](C(=O)O)C1
pIC50: 6.83

Values compiled from patent US11697646B2.
